FYI, the data here is from patent US9346815B2.

- System: JAK1-dependent STAT6 phosphorylation downstream of IL-13 stimulation in TF-1 human erythroleukemia cells
- test_name: JAK1 pathway assay in TF-1 cells (IL-13-pSTAT6, MSD)
- Type: cell-based
- condition_summary: Homo sapiens, TF-1, TF-1 cells, read-out: IL13-pSTAT6 EC50_TF-1
- Description: JAK1 Pathway Assay in Cell Lines was Carried Out as Follows: Inhibitor potency (EC50) was determined in cell-based assays designed to measure JAK1 dependent STAT phosphorylation. […] Test compounds were serially diluted 1:2 in DMSO and then diluted 1:50 in medium just before use. […] Then, cells were stimulated with human recombinant cytokine at their respective EC90 concentrations, as previously determined for each individual lot. […]
observable: EC50 (nM)

[[record]]
structure_string = "O=C(Nc1cn(CC(=O)N2C[C@H]3CN(CCCO)C[C@H]3C2)nc1-c1cc(Cl)ccc1OC(F)F)c1cnn2cccnc12"
reading = 335

[[record]]
structure_string = "O=C(Nc1cn(CC(=O)N2C[C@H]3CN(CC4CCC4)C[C@H]3C2)nc1-c1cc(Cl)ccc1OC(F)F)c1cnn2cccnc12"
reading = 3.8

[[record]]
structure_string = "CCCCOc1ccc(CN(C)C2CCN(C(=O)Cn3cc(NC(=O)c4cnn5cccnc45)c(-c4cc(Cl)ccc4OC(F)F)n3)CC2)cc1"
reading = 72.4

[[record]]
structure_string = "CN(Cc1ccccc1)C1CCN(c2nc(-c3cc(Cl)ccc3OC(F)F)c(NC(=O)c3cnn4cccnc34)s2)CC1"
reading = 184

[[record]]
structure_string = "CN(CC(F)(F)c1ccccc1)C1CCN(C(=O)Cn2cc(NC(=O)c3cnn4cccnc34)c(-c3cc(Cl)ccc3OC(F)F)n2)CC1"
reading = 8.5

[[record]]
structure_string = "CN1CCCN(C(=O)Cn2cc(NC(=O)c3c(N)nn4cccnc34)c(-c3cc(Cl)ccc3OC(F)F)n2)CC1"
reading = 48.8

